biological target: cloned human CCR8 receptor stably expressed in L1.2 cells (Homo sapiens, UniProt P51685); construct: expressed in transfected cells; assay: whole cell binding screen: inhibition of biotinylated human I309 binding to CCR8 (FMAT 8100 HTS); settings: L1.2/hCCR8 cells, biotinylated human I-309, 10 point concentration response starting at 10 μM; read-out: Ki of compounds to inhibit I-309 binding to CCR8
Sequence (P51685 whole entry): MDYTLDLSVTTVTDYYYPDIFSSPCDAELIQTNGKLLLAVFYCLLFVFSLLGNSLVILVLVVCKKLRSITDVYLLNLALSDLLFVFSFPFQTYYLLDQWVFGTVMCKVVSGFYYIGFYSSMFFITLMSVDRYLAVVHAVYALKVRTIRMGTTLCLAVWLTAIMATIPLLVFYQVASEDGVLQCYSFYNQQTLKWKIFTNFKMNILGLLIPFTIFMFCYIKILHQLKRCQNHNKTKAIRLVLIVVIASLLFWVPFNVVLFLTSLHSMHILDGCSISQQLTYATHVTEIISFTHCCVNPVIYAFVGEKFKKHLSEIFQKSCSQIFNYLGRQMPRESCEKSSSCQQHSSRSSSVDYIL
pKi: −log10 of the molar value.
ASSAY METRIC: pKi

[[record]]
compound = "CCOC(=O)N1CCC(NS(=O)(=O)c2cccc3c(NC(=O)c4ccc(C)cc4)cccc23)CC1"
system_tested = "cloned human CCR8 receptor stably expressed in L1.2 cells (Homo sapiens, UniProt P51685)"
assay_metric = "pKi"
result = "> 6.00"

[[record]]
compound = "CCOC(=O)N1CCC(NS(=O)(=O)c2ccc(NC(=O)c3ccccc3C)c3c2CCCC3)C1 (racemic)"
system_tested = "cloned human CCR8 receptor stably expressed in L1.2 cells (Homo sapiens, UniProt P51685)"
assay_metric = "pKi"
result = "> 6.30"

[[record]]
compound = "Cc1cccc(NC(=O)c2cccc3c(S(=O)(=O)NC4CCN(C(=O)N(C)C)CC4)cccc23)c1C"
system_tested = "cloned human CCR8 receptor stably expressed in L1.2 cells (Homo sapiens, UniProt P51685)"
assay_metric = "pKi"
result = "> 6.30"

[[record]]
compound = "CC(C)(C)OC(=O)N1CCC(NS(=O)(=O)c2ccc(NC(=O)C3CCCC3)c3ccccc23)CC1"
system_tested = "cloned human CCR8 receptor stably expressed in L1.2 cells (Homo sapiens, UniProt P51685)"
assay_metric = "pKi"
result = "> 6.00"

[[record]]
compound = "Cc1cccc(NC(=O)c2ccc(S(=O)(=O)NC3CCN(C(=O)N(C)C)CC3)c3ccccc23)c1C"
system_tested = "cloned human CCR8 receptor stably expressed in L1.2 cells (Homo sapiens, UniProt P51685)"
assay_metric = "pKi"
result = "> 6.30"

[[record]]
compound = "CCCC(=O)N1CC[C@H](NS(=O)(=O)c2ccc(NC(=O)c3ccccc3C)c3ccccc23)[C@H](C)C1 (racemic)"
system_tested = "cloned human CCR8 receptor stably expressed in L1.2 cells (Homo sapiens, UniProt P51685)"
assay_metric = "pKi"
result = "> 6.30"

[[record]]
compound = "Cc1ccccc1C(=O)Nc1ccc(S(=O)(=O)NC2CCNCC2)c2ccccc12"
system_tested = "cloned human CCR8 receptor stably expressed in L1.2 cells (Homo sapiens, UniProt P51685)"
assay_metric = "pKi"
result = "> 6.30"


---

target: cloned human CCR8 receptor stably expressed in L1.2 cells (Homo sapiens); construct: expressed in transfected cells; assay: whole cell binding screen: inhibition of biotinylated human I309 binding to CCR8 (FMAT 8100 HTS); conditions: L1.2/hCCR8 cells, biotinylated human I-309, 10 point concentration response starting at 10 μM; read-out: Ki of compounds to inhibit I-309 binding to CCR8
# key: entry, value: Ki
ASSAY METRIC: Ki

[[record]]
molecule = "CCCC(=O)N1CCC(NS(=O)(=O)c2ccc(NC(=O)c3ccccc3C)c3c2CCC3)C1 (racemic) [Compound H-71]"
result = "< 500 nM"

[[record]]
molecule = "CCOC(=O)N1CCC(NS(=O)(=O)c2ccc(NC(=O)c3ccccc3C)c3c2CCCC3=O)CC1 [Compound J-43]"
result = "< 1000 nM"

[[record]]
molecule = "CC[C@@H]1CNCC[C@@H]1NS(=O)(=O)c1ccc(NC(=O)c2ccccc2C)c2ccccc12 [Compound J-45]"
result = "< 500 nM"

[[record]]
molecule = "Cc1ccccc1C(=O)Nc1ccc(S(=O)(=O)N[C@H]2CCN(C(=O)OC(C)C)C[C@H]2C)c2ccccc12 (racemic) [Compound C-13]"
result = "< 500 nM"

[[record]]
molecule = "Cc1ccccc1C(=O)Nc1ccc(S(=O)(=O)N[C@H]2CCNC[C@@H]2CC(C)C)c2ccccc12 [Compound J-56]"
result = "< 5000 nM"

[[record]]
molecule = "COc1ccc(NS(=O)(=O)c2ccc(NC(=O)C3CCCCC3)c3ccccc23)cc1 [Compound B-4]"
result = "< 500 nM"

[[record]]
molecule = "O=C(Nc1ccc(S(=O)(=O)NC2CCCCC2)c2c1CCCC2)c1ccccc1 [Compound E-2]"
result = "< 500 nM"


---

target: cloned human CCR8 receptor stably expressed in L1.2 cells (Homo sapiens, UniProt P51685); construct: expressed in transfected cells; experiment: whole cell binding screen: inhibition of biotinylated human I309 binding to CCR8 (FMAT 8100 HTS); conditions: L1.2/hCCR8 cells, biotinylated human I-309, 10 point concentration response starting at 10 μM; read-out: Ki of compounds to inhibit I-309 binding to CCR8
pKi: −log10 of the molar value.
# key: entry, value: pKi
ASSAY METRIC: pKi

[[record]]
compound = "COc1ccc(NS(=O)(=O)c2cccc3c(NC(=O)c4ccccc4)cccc23)cc1"
result = "> 6.30"

[[record]]
compound = "CCCC(=O)N1C[C@@H](C)[C@@H](NS(=O)(=O)c2ccc(NC(=O)c3ccccc3C)c3ccccc23)[C@@H](C)C1"
result = "> 6.00"

[[record]]
compound = "CCc1ccc(NS(=O)(=O)c2ccc(NC(=O)c3ccccc3)c3ccccc23)cc1"
result = "> 6.30"

[[record]]
compound = "CCOC(=O)N1CCC(NS(=O)(=O)c2ccc(NC(=O)c3ccccc3C)c3ccccc23)C(C)(C)C1 (racemic)"
result = "> 6.30"

[[record]]
compound = "CCOC(=O)N1CCC(NS(=O)(=O)c2cccc3c(C(=O)Nc4ccccc4Cl)cccc23)CC1"
result = "> 6.30"

[[record]]
compound = "Cc1ccccc1C(=O)Nc1ccc(S(=O)(=O)N[C@H]2CCN(Cc3ccccc3)C[C@H]2C)c2c1CCCC2 (racemic)"
result = "> 6.00"

[[record]]
compound = "CCOC(=O)N1CCC(NS(=O)(=O)c2cccc3c(CNC4CCCCC4)cccc23)CC1"
result = "> 6.30"

[[record]]
compound = "Cc1ccccc1C(=O)Nc1ccc(S(=O)(=O)NC2CCN(C(=O)N(C)C)CC2)c2c1CCCC2"
result = "> 6.30"

[[record]]
compound = "CCOC(=O)N1CCC(NS(=O)(=O)c2ccc(NC(=O)c3cc(C)ccc3C)c3ccccc23)CC1"
result = "> 6.30"

[[record]]
compound = "CCOC(=O)N1CCC(NS(=O)(=O)c2cccc3c(C(=O)Nc4ccccc4)cccc23)CC1"
result = "> 6.00"

[[record]]
compound = "CCOC(=O)N1CCC(NS(=O)(=O)c2cccc3c(NC(=O)c4ccccc4C)cccc23)CC1"
result = "> 6.00"

[[record]]
compound = "CCCC(=O)N1CCC(NS(=O)(=O)c2cccc3c(C(=O)Nc4cccc(C)c4C)cccc23)CC1"
result = "> 6.30"

[[record]]
compound = "CCOC(=O)N1CCC(NS(=O)(=O)c2ccc(NC(=O)c3cccnc3C)c3ccccc23)CC1"
result = "> 6.30"

[[record]]
compound = "Cc1ccccc1C(=O)Nc1ccc(S(=O)(=O)N[C@H]2CCN(C(=O)[C@H]3CCCN3)C[C@H]2C)c2ccccc12"
result = "> 6.30"

[[record]]
compound = "CCOC(=O)C1CN(C(=O)CN(C)C)CCC1NS(=O)(=O)c1ccc(NC(=O)c2ccccc2C)c2ccccc12 (centres unmarked)"
result = "> 4.52"

[[record]]
compound = "Cc1ccccc1C(=O)Nc1ccc(S(=O)(=O)NC2CCN(C(=O)CN3CCCCC3)CC2)c2ccccc12"
result = "> 4.52"

[[record]]
compound = "O=C(Nc1ccc(S(=O)(=O)NC2CCNCC2)c2ccccc12)C1CCC1"
result = "> 4.52"

[[record]]
compound = "CCOC(=O)N1CC[C@H](NS(=O)(=O)c2ccc(N)c3ccccc23)[C@H](C)C1 (racemic)"
result = "> 4.52"

[[record]]
compound = "CCCC(=O)N1CCC(NS(=O)(=O)c2ccc(C(=O)Nc3cccc(C)c3C)c3ccccc23)CC1"
result = "> 6.30"

[[record]]
compound = "CCOC(=O)N1CCCC(NS(=O)(=O)c2ccc(NC(=O)c3ccccc3C)c3ccccc23)C1 (racemic)"
result = "> 6.30"

[[record]]
compound = "Cc1ccccc1C(=O)Nc1ccc(S(=O)(=O)N[C@@H]2CCN(Cc3ccccc3)C[C@H]2C)c2ccccc12 (racemic)"
result = "> 6.30"

[[record]]
compound = "CCOC(=O)N1CCC(NS(=O)(=O)c2cccc3c(C(=O)Nc4cccc(C)c4)cccc23)CC1"
result = "> 4.52"

[[record]]
compound = "CC(C)(C)OC(=O)N1CCC(NS(=O)(=O)c2ccc(C(=O)NC3CCOCC3)c3ccccc23)CC1"
result = "> 4.52"

[[record]]
compound = "CC[C@H]1CNCC[C@@H]1NS(=O)(=O)c1ccc(NC(=O)c2ccccc2C)c2ccccc12"
result = "> 6.30"

[[record]]
compound = "CCCC(=O)N1C[C@H](C)C(NS(=O)(=O)c2ccc(NC(=O)c3ccccc3C)c3ccccc23)[C@@H](C)C1 (racemic)"
result = "> 6.30"

[[record]]
compound = "Cc1ccccc1C(=O)Nc1ccc(S(=O)(=O)N[C@H]2CCNC[C@H]2C)c2ccccc12 (racemic) [Compound C-28]"
result = "> 6.00"

[[record]]
compound = "Cc1ccccc1C(=O)Nc1ccc(S(=O)(=O)N[C@H]2CCN(C(=O)C(C)N)C[C@H]2C)c2cccnc12 (stereo in doubt)"
result = "> 6.30"

[[record]]
compound = "Cc1ccccc1C(=O)Nc1ccc(S(=O)(=O)N[C@@H]2CCN(Cc3ccccc3)C[C@H]2C)c2c1CCC2 (racemic)"
result = "> 6.00"

[[record]]
compound = "CC(C)(C)OC(=O)N1CCC(NS(=O)(=O)c2ccc(NC(=O)c3ccccc3F)c3ccccc23)CC1"
result = "> 6.30"

